system: Ras-related protein Rab-7a (dog), GTP binding; test: blockers of fluorescent GTP binding to Rab7 – biochemical, wildtype, multiplex bead flow cytometry, dose response (AID 1336); conditions: bead-based flow cytometry; series mostly up to 100 µM
Measured potencies and affinities stand elsewhere. Active and inactive are the calls of the source. How the calls were made is not given here.
QUANTITY: GTP binding, % of control

Below, 5 molecules whose answers are already recorded.
                                   molecule  experimental_value
0              COc1ccccc1OCc1cccc(C(=O)O)c1            inactive
1  CCn1c(SCC(=O)O)nnc1-c1cc2c(C)nn(-c3ccccc3)c2s1            inactive
2   NC(=O)c1cc2nc(-c3ccco3)cc(C(F)(F)F)n2n1            inactive
3  N#C/C(=C/c1ccc(O)c([N+](=O)[O-])c1)C(=O)Nc1ccccc1            inactive
4  COc1cc(SC#N)ccc1N=Cc1c(C)[nH]n(-c2ccc(C)c(C)c2)c1=O            inactive

Using the record for COc1ccc(-c2cc(-c3ccc(O)cc3)nc(N)c2C#N)cc1OC , report its GTP binding, % of control.
inactive

Cool, now CCOC(=O)CN(C(=O)CSc1nnc2c(n1)[nH]c1ccc(OC)cc12)c1ccc(F)cc1
inactive

* * *

biological target: Beta-adrenergic receptor kinase 1 (Homo sapiens); test: GRK2 binders displacing RNA aptamer, biochemical, validation, human GRK2, bead flow cytometry (AID 488806); conditions: bead-bound GRK2, FAM-aptamer displacement, at 10 µM, hits give high values
QUANTITY: aptamer binding inhibition (%)
Express the result in % but write the number alone.

Below, 5 molecules whose answers are already recorded.
In [3]: df
Out[3]:
                                   molecule                    quantity  experimental_value
0           COc1cccc2cc(-c3ccccc3)c(=O)oc12  aptamer binding inhibition                   3
1         O=c1ccc2c(o1)/C(=C/C=C(Cl)Cl)CCC2  aptamer binding inhibition                   2
2  CCCC(CCC)C(=O)OC1C[C@H]2CC[C@@H](C1)[N+]2(C)C (some centres undefined)  aptamer binding inhibition                   7
3      COCCCNc1nc2c([nH]1)c(=O)[nH]c(=O)n2C  aptamer binding inhibition                   4
4     COc1ccc(OC)c(C(=O)c2coc3ccc(O)cc23)c1  aptamer binding inhibition                   2

# input for lookup
Can you look up aptamer binding inhibition on Beta-adrenergic receptor kinase 1 (Homo sapiens) for CCc1cc(=O)oc2cc3occ(-c4ccc(OC)c(F)c4)c3cc12 ?
-1

* * *

experiment: calorie-restriction mimetic ROS inhibitors, yeast – validation compound set, pilot screen (AID 2706);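 further: yeast exposed to compound for one week at 30 degrees C before staining; 100% = mean of all compound wells on the same plate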; details: S. cerevisiae aging, superoxide DHE fluorescence; at 10 µM; hits give low values
QUANTITY: superoxide response (% of plate) (%)
Express the result in % but write the number alone.

>>> print(df.to_string())
                                   compound  units_text  experimental_value
0  CC(=O)OC(C)C[N+](C)(C)C (configuration not stated)           %                86.6
1                      CCSC(=O)CCCCCCCCCCCO           %                78.1

Using the record for Nc1nc(Cl)nc2c1ncn2[C@@H]1O[C@H](CO)[C@@H](O)[C@H]1O , report its superoxide response (% of plate).
95.9

Cool, now O=C(NCCc1c[nH]c2ccccc12)c1cccnc1
93.7

Cool, now COC(=O)c1cc(Br)c(=O)n(CCc2ccc(O)cc2)c1
103

Cool, now COc1cc(-c2cccs2)cc(=O)c2c(C)oc(C)c12
96.1

Cool, now Cc1c(O)c(=O)ccn1C
99.1

* * *

test system: anti-desmoglein-3 scFv antibody binding to human DSG3; test: blockers of pathogenic pemphigus antibody–desmoglein-3 binding – biochemical, validation compound set, bead-based, flow cytometry, pilot screen (AID 588368); details: Protein G beads, DSG3-Fc, scFv-GFP binding, at 10 µM, hits give low values;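 further: signal is the median channel fluorescence of bead-bound GFP antibody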
# binding (% of control) values compiled below
Express the result in % but write the number alone.

In [3]: df
Out[3]:
                                   molecule                               test_system                quantity  experimental_value
0  N/C(=N\OC(=O)CCCOc1ccc(Cl)cc1Cl)c1ccccn1  anti-desmoglein-3 scFv antibody binding to human DSG3  binding (% of control)                 105
1  C[C@@H]1C[C@H]2[C@@H]3C[C@H](F)C4=CC(=O)C=C[C@]4(C)[C@@]3(F)[C@@H](O)C[C@]2(C)[C@@]1(O)C(=O)COC(=O)C(C)(C)C  anti-desmoglein-3 scFv antibody binding to human DSG3  binding (% of control)                 100

Using the record for Cc1ccccc1C(=O)Nc1ccccc1C(=O)NCC(C)C , report its binding (% of control).
99.9

Cool, now CN/C(=C/[N+](=O)[O-])NCCSCc1ccc(CN(C)C)o1
104

Cool, now COc1ccc2c(CC(=O)NCC3CCC(C(=O)O)CC3)cc(=O)oc2c1 (stereo unspecified)
102

Cool, now Cc1ccccc1C(=O)NCC(=O)O
103

Cool, now O=C(O)C1Cc2ccccc2CN1S(=O)(=O)c1ccccc1 (stereo unspecified)
104

Cool, now Cc1cc(C)c(NC(=O)NC(=O)C(Cl)(Cl)Cl)c(C)c1
96.9

Cool, now NCc1ccccc1COc1ccccc1
98

Cool, now CN(C)CC/C=C1\c2ccccc2COc2ccccc21
79

Cool, now CCN1/C(=C/C=C/C=C/c2sc3ccccc3[n+]2CC)Sc2ccccc21
121

* * *

# aptamer binding inhibition values compiled below
target: Beta-adrenergic receptor kinase 1 (Homo sapiens); experiment: GRK2 binders displacing RNA aptamer, biochemical, validation, human GRK2, bead flow cytometry (AID 488806); conditions: bead-bound GRK2, FAM-aptamer displacement, at 10 µM, hits give high values
Express the result in % but write the number alone.

Below, 4 molecules whose answers are already recorded.
>>> df
                                   molecule  experimental_value
0             Cc1ccccc1N1C(N)=NC(N)=NC1(C)C                   0
1                       c1ccc(Nc2ccccn2)nc1                   3
2  COc1ccc(-c2[nH]ncc2CN(C)C(C)c2ccon2)c(OC)c1 (configuration not stated)                   2
3  C/C=C/c1ccc(OCCCCN2CC(C)CC(C)C2)c(OC)c1 (configuration not stated)                  -1

# input for lookup
Using the record for COc1ccc(CCN2CNc3c(c(=O)n(C)c(=O)n3C)C2)cc1OC , report its aptamer binding inhibition.
-4

* * *

test: cytosolic pH regulators acting via V-ATPase – S. cerevisiae, pHLuorin, HTS validation (AID 504600); conditions: V-ATPase proton transport, at 10 µM, hits give high values;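 further: plate controls were DMSO for no effect and reference compound for full effect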
Calls of active or inactive are those of the source. No stated cut-off is given here; in the data, active means response above about 15%; inactive means the rest.
# response values compiled below

Below, 2 molecules whose answers are already recorded.
                                   molecule  experimental_value
0             CCOc1ccc(C(=O)C(C)=O)c(OCC)c1    1.92% (inactive)
1  CC(NC(=O)c1cccnc1)C(=O)O (stereo not given)   -5.71% (inactive)

# input for lookup
Using the record for COc1ccc2nc(C)cc(Nc3ccccc3O)c2c1 , report its response.
1.21% (inactive)

* * *

molecular target: Cell division control protein 42 homolog (Homo sapiens); experiment: inhibition of fluorescent GTP binding to constitutively active Cdc42 – biochemical, multiplex bead flow cytometry, Bodipy-FL-GTP, dose response (AID 1333); conditions: bead-based flow cytometry; series mostly up to 100 µM
Measured potencies and affinities stand elsewhere. Active and inactive are the calls of the source.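 How the source made its calls: active means fitted half-maximal concentration within the tested dose range, moderate curve steepness, a statistically real signal drop, and little compound fluorescence or tag-binding interference; inactive means the rest.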
QUANTITY: outcome

In [3]: df
Out[3]:
                                   molecule  experimental_value
0        COc1ccc(OCCN2C(=O)c3ccccc3C2=O)cc1            inactive
1  COC(=O)COc1ccc(/C=N/NC(=O)c2ccc(N(Cc3ccccc3)S(C)(=O)=O)cc2)cc1            inactive
2        COc1ccc(C(=O)O)c(OCc2c(C)cccc2C)c1            inactive
3             COc1ccccc1CNCc1sc(C(=O)O)cc1C            inactive
4  COCCN1C(=O)/C(=C/c2ccc(N3CCCC3)cc2C)SC1=S            inactive
5  CCOc1cc(/C=N/NC(=O)c2cc(-c3cccnc3)nc3ccccc23)ccc1O            inactive
6  COc1ccc(/C=C2/N=C(SCC(=O)Nc3cc(C)on3)N(c3ccccc3)C2=O)cc1            inactive
7  COc1cccc2c(SCC(=O)N/N=C/c3ccc(O)c(O)c3)cc(C)nc12            inactive
8  COc1cc(/C=N\NC(=O)c2ccc(Cn3nc([N+](=O)[O-])c(Cl)c3C)o2)ccc1O            inactive
9  CCOc1ccc(-n2c(C)nc3cc(C(=O)NCc4ccc5c(c4)OCO5)ccc32)cc1            inactive

Using the record for COc1ccc(C(CC(=O)O)NC(=O)c2cc3cc(Br)ccc3oc2=O)cc1OC (configuration not stated) , report its outcome.
inactive

Cool, now COc1ccc(C(=O)N/N=c2\oc3ccccc3cc2C(N)=O)cc1
inactive

Cool, now O=[N+]([O-])c1cc2oc3c(c2c(C=NCc2ccccc2)c1O)CCCC3
inactive

Cool, now CCCOC(=O)c1c(NC(=O)CCC(=O)O)sc2c1CCCCC2
inactive

Cool, now O=C(O)CC/C(=C\c1ccc(N2CCCC2)c([N+](=O)[O-])c1)c1nc2ccccc2s1
inactive

Cool, now O=[N+]([O-])c1ccccc1/C=C/C=N/n1c(-c2ccco2)n[nH]c1=S
inactive
